Readout kind: IC50 (nM)
# number only, unit nM dropped from output

The compound C[C@@H]1COCCN1c1nc2c(cnn2-c2cc[nH]n2)c2c1CCN2C [US20240025899, Compound 12] , tested on Serine/threonine-protein kinase ATR [14-953] (Homo sapiens, UniProt Q13535), showed IC50 of 14
